Catalogue of Selectivity ratio values
# Tested on: Streptococcus pneumoniae
# test_description: Selectivity ratio of MBC for Streptococcus pneumoniae ATCC 49619 to MIC for Streptococcus pneumoniae ATCC 49619
# Format: functional
readout: Selectivity ratio

1. CC[C@H]1OC(=O)[C@H](C)[C@@H](OC(=O)Cc2ccccn2)[C@H](C)[C@@H](O[C@@H]2O[C@H](C)C[C@H](N(C)C)[C@H]2O)[C@](C)(OC(=O)CCN2CCN(c3c(F)cc4c(=O)c(C(=O)O)cn(C5CC5)c4c3OC)CC2C)C[C@@H](C)CN(C)[C@H](C)[C@@H](O)[C@]1(C)O (stereo partly drawn) ... 2
2. CC[C@H]1OC(=O)[C@H](C)[C@@H](OC(=O)CCN2CCN(c3cc4c(cc3F)c(=O)c(C(=O)O)cn4C3CC3)CC2)[C@H](C)[C@@H](O[C@@H]2O[C@H](C)C[C@H](N(C)C)[C@H]2O)[C@](C)(OC)C[C@@H](C)/C(=N\OCC#Cc2cncc(C(=O)NC)c2)[C@H](C)[C@H]2OC(=O)O[C@@]21C ... 8

====

// reported MIC per item
# System: Staphylococcus aureus
# test_description: Antibacterial activity against methicillin-resistant Staphylococcus aureus PU 20 harboring c-ermA gene incubated for 16 to 20 hrs by CLSI based broth microdilution method
# Format: functional
# condition_parameters: time 16-20 hrs
readout: MIC (µg/mL)

1) CC[C@H]1OC(=O)[C@H](C)[C@@H](OC(=O)CCN2CCN(c3cc4c(cc3F)c(=O)c(C(=O)O)cn4C3CC3)CC2)[C@H](C)[C@@H](O[C@@H]2O[C@H](C)C[C@H](N(C)C)[C@H]2O)[C@](C)(OC)C[C@@H](C)/C(=N\OC)[C@H](C)[C@H]2OC(=O)O[C@@]21C ... 256
2) CC[C@H]1OC(=O)[C@H](C)[C@@H](OC(=O)CCN2CCN(c3c(F)cc4c(=O)c(C(=O)O)cn(C5CC5)c4c3OC)CC2C)[C@H](C)[C@@H](O[C@@H]2O[C@H](C)C[C@H](N(C)C)[C@H]2O)[C@](C)(OC)C[C@@H](C)/C(=N\OCC#Cc2cncc(C(=O)NC)c2)[C@H](C)[C@H]2OC(=O)O[C@@]21C (some centres undefined) ... 32

====

# System: Streptococcus pneumoniae
# test_description: Selectivity ratio of MBC for Streptococcus pneumoniae ATCC 49619 to MIC for Streptococcus pneumoniae ATCC 49619
# Format: functional
Here the recorded Selectivity ratio is given for each entry.
readout: Selectivity ratio

1. CC[C@H]1OC(=O)[C@H](C)[C@@H](OC(=O)CCN2CCN(c3cc4c(cc3F)c(=O)c(C(=O)O)cn4C3CC3)CC2)[C@H](C)[C@@H](O[C@@H]2O[C@H](C)C[C@H](N(C)C)[C@H]2O)[C@](C)(OC)C[C@@H](C)/C(=N\OC/C=C/c2cncc(C(=O)NC)c2)[C@H](C)[C@H]2OC(=O)O[C@@]21C ... 2
2. CC[C@H]1OC(=O)[C@H](C)C(=O)[C@H](C)[C@@H](O[C@@H]2O[C@H](C)C[C@H](N(C)C)[C@H]2O)[C@](C)(OC)C[C@@H](C)C(=O)[C@H](C)[C@H]2N(CCCCn3cnc(-c4cccnc4)c3)C(=O)O[C@]12C ... 4
3. CC[C@H]1OC(=O)[C@H](C)[C@@H](OC(=O)CCNCCCCNc2cc3c(cc2F)c(=O)c(C(=O)O)cn3C2CC2)[C@H](C)[C@@H](O[C@@H]2O[C@H](C)C[C@H](N(C)C)[C@H]2O)[C@](C)(OC)C[C@@H](C)/C(=N\OC)[C@H](C)[C@H]2OC(=O)O[C@@]21C ... 2
4. CC[C@H]1OC(=O)[C@H](C)[C@@H](OC(=O)CCN2CCN(c3cc4c(cc3F)c(=O)c(C(=O)O)cn4C3CC3)CC2)[C@H](C)[C@@H](O[C@@H]2O[C@H](C)C[C@H](N(C)C)[C@H]2O)[C@](C)(OC)C[C@@H](C)/C(=N\OCC#Cc2cncc(C(N)=O)c2)[C@H](C)[C@H]2OC(=O)O[C@@]21C ... 2

====

# System: Streptococcus pneumoniae
# test_description: Antibacterial activity against Streptococcus pneumoniae ATCC 49619 incubated for 16 to 20 hrs by CLSI based broth microdilution method
# Format: functional
# condition_parameters: time 16-20 hrs
# MIC per entry
readout: MIC (µg/mL)

1. CC[C@H]1OC(=O)[C@H](C)[C@@H](OC(=O)CCNCCCCNc2cc3c(cc2F)c(=O)c(C(=O)O)cn3C2CC2)[C@H](C)[C@@H](O[C@@H]2O[C@H](C)C[C@H](N(C)C)[C@H]2O)[C@](C)(OC)C[C@@H](C)/C(=N\OC)[C@H](C)[C@H]2OC(=O)O[C@@]21C ... 0.062
2. CC[C@H]1OC(=O)[C@H](C)[C@@H](OC(=O)CCN2CCN(c3cc4c(cc3F)c(=O)c(C(=O)O)cn4C3CC3)CC2)[C@H](C)[C@@H](O[C@@H]2O[C@H](C)C[C@H](N(C)C)[C@H]2O)[C@](C)(OC)C[C@@H](C)/C(=N\OC/C=C/c2cncc(C(=O)NC)c2)[C@H](C)[C@H]2OC(=O)O[C@@]21C ... 0.03

====

# key: entry, value: MIC
# System: Streptococcus pneumoniae
# test_description: Antibacterial activity against Streptococcus pneumoniae ATCC 49619 incubated for 16 to 20 hrs by CLSI based broth microdilution method
# Type: functional
# condition_parameters: time 16-20 hrs
readout: MIC (µg/mL)

1. CC[C@H]1OC(=O)[C@H](C)[C@@H](OC(=O)CCNCCCCCCCNc2cc3c(cc2F)c(=O)c(C(=O)O)cn3C2CC2)[C@H](C)[C@@H](O[C@@H]2O[C@H](C)C[C@H](N(C)C)[C@H]2O)[C@](C)(OC)C[C@@H](C)/C(=N\OC)[C@H](C)[C@H]2OC(=O)O[C@@]21C ... 0.125
2. CC[C@H]1OC(=O)[C@H](C)[C@@H](OC(=O)CCNCCCNc2cc3c(=O)c(C(=O)O)cn(C4CC4)c3cc2Cl)[C@H](C)[C@@H](O[C@@H]2O[C@H](C)C[C@H](N(C)C)[C@H]2O)[C@](C)(OC)C[C@@H](C)/C(=N\OC)[C@H](C)[C@H]2OC(=O)O[C@@]21C ... 0.25
3. CC[C@H]1OC(=O)[C@H](C)[C@@H](OC(=O)CCNCCCCCCCCNc2cc3c(=O)c(C(=O)O)cn(C4CC4)c3cc2Cl)[C@H](C)[C@@H](O[C@@H]2O[C@H](C)C[C@H](N(C)C)[C@H]2O)[C@](C)(OC)C[C@@H](C)/C(=N\OC)[C@H](C)[C@H]2OC(=O)O[C@@]21C ... 2
4. CC[C@H]1OC(=O)[C@H](C)[C@@H](OC(=O)CCN2CCN(c3cc4c(cc3F)c(=O)c(C(=O)O)cn4C3CC3)CC2)[C@H](C)[C@@H](O[C@@H]2O[C@H](C)C[C@H](N(C)C)[C@H]2O)[C@](C)(OC)C[C@@H](C)/C(=N\OCC#Cc2cncc3ccccc23)[C@H](C)[C@H]2OC(=O)O[C@@]21C ... 4

====

# Tested on: Streptococcus pneumoniae
# test_description: Selectivity ratio of MBC for Streptococcus pneumoniae ATCC 49619 to MIC for Streptococcus pneumoniae ATCC 49619
# Format: functional
readout: Selectivity ratio

1) CC[C@H]1OC(=O)[C@H](C)[C@@H](OC(=O)CCNCCCCCCCNc2cc3c(cc2F)c(=O)c(C(=O)O)cn3C2CC2)[C@H](C)[C@@H](O[C@@H]2O[C@H](C)C[C@H](N(C)C)[C@H]2O)[C@](C)(OC)C[C@@H](C)/C(=N\OC)[C@H](C)[C@H]2OC(=O)O[C@@]21C ... 2
2) CC[C@H]1OC(=O)[C@H](C)[C@@H](OC(=O)CCNCCCNc2cc3c(=O)c(C(=O)O)cn(C4CC4)c3cc2Cl)[C@H](C)[C@@H](O[C@@H]2O[C@H](C)C[C@H](N(C)C)[C@H]2O)[C@](C)(OC)C[C@@H](C)/C(=N\OC)[C@H](C)[C@H]2OC(=O)O[C@@]21C ... 2
3) CC[C@H]1OC(=O)[C@H](C)[C@@H](OC(=O)CCN2CCN(c3c(F)cc4c(=O)c(C(=O)O)cn(C5CC5)c4c3OC)CC2C)[C@H](C)[C@@H](O[C@@H]2O[C@H](C)C[C@H](N(C)C)[C@H]2O)[C@](C)(OC)C[C@@H](C)/C(=N\OCC#Cc2cncc(C(=O)NC)c2)[C@H](C)[C@H]2OC(=O)O[C@@]21C (some centres undefined) ... 2
4) CC[C@H]1OC(=O)[C@H](C)[C@@H](OC(=O)CCNCCCCNc2cc3c(cc2F)c(=O)c(C(=O)O)cn3C2CC2)[C@H](C)[C@@H](O[C@@H]2O[C@H](C)C[C@H](N(C)C)[C@H]2O)[C@](C)(OC)C[C@@H](C)/C(=N\OCC#Cc2cncc(NC(C)=O)c2)[C@H](C)[C@H]2OC(=O)O[C@@]21C ... 1
